These data points were gathered from patent US6737383B1.

Tested on: morningglory
protocol_description: Test B pre/postemergence morningglory
Type: in vivo, Ipomoea hederacea
condition_set: Rate 125 g/ha; Postemergence; scale 0 to 10, 0 no effect, 10 complete control
Experimental: […] At the same time, these crop and weed species were also treated with postemergence applications of test chemicals formulated in the same manner. […] Treated plants and controls were maintained in a greenhouse for twelve to sixteen days, after which all species were compared to controls and visually evaluated. […]
Checkbox rule: Morningglory plant response rating lower than 2 = True; Morningglory plant response rating not lower than 2 = False.

Below, 4 compounds whose answers are already recorded.
COc1ccccc1-n1c(=O)on(C(=O)N(c2ccc(F)cc2)C(C)C)c1=O ... True
CCN(Cc1ccccc1)C(=O)n1oc(=O)n(-c2c(C)cccc2C)c1=O ... True
CC(C)N(C(=O)n1oc(=O)n(-c2ccc(Cl)cc2Cl)c1=O)c1ccc(F)cc1 ... True
COc1ccc(-n2c(=O)on(C(=O)N(c3ccc(F)cc3F)C(C)C)c2=O)c(OC)c1 ... False

Could you now look at the following compound, please?
Dear reviewer, please state whether CC(C)N(C(=O)n1oc(=O)n(Cc2ccccc2)c1=O)c1ccc(F)cc1F has Morningglory plant response rating strictly beneath 2.
False

====

Tested on: corn
protocol_description: Test B pre/postemergence corn
Assay type: in vivo, Zea mays
condition_set: Rate 500 g/ha, Postemergence; scale 0 to 10
measured_quantity: Corn plant response rating
One number for each entry.

Solved entries:
CC(C)N(C(=O)n1oc(=O)n(N(C)C)c1=O)c1ccc(F)cc1 [Compound 170] ... 0
C=CCn1c(=O)on(C(=O)N(c2ccc(F)cc2)C2CC2)c1=O [Compound 154] ... 0
CC(C)N(C(=O)n1oc(=O)n(C)c1=O)c1ccc(F)cc1 [Compound 138] ... 7
Cc1nsc(C)c1-n1c(=O)on(C(=O)N(c2ccc(F)cc2)C(C)C)c1=O [Compound 157] ... 0

Next compound, please.
Which measured Corn plant response rating belongs to Cc1nsc(C)c1-n1c(=O)on(C(=O)N(c2ccc(Cl)cc2)C(C)C)c1=O [Compound 159] , tested on corn?
0

====

Tested on: wheat
protocol_description: Test B pre/postemergence wheat
Type: in vivo, Triticum aestivum
condition_set: Preemergence, Rate 62 g/ha; scale of 0 to 10 where 0 is no effect and 10 is complete control
measured_quantity: Wheat plant response rating
Give bare numbers.

COC(=O)CCCn1c(=O)on(C(=O)N(c2ccc(F)cc2)C(C)C)c1=O ... 0

Please report Wheat plant response rating for every entry that follows.
1. CC(C)N(C(=O)n1oc(=O)n([C@@H](C)c2ccccc2)c1=O)c1ccc(Cl)cc1
2. CC(C)N(C(=O)n1oc(=O)n(C2CC2)c1=O)c1ccc(F)cc1

[0, 5]

====

Test system: sugar beet
protocol_description: Test B pre/postemergence sugar beet
Assay type: in vivo, Beta vulgaris
condition_set: Preemergence, Rate 500 g/ha; scale 0 (no effect) to 10 (complete control)
Experimental: […] At the same time, these crop and weed species were also treated with postemergence applications of test chemicals formulated in the same manner. […] Treated plants and controls were maintained in a greenhouse for twelve to sixteen days, after which all species were compared to controls and visually evaluated. […]
measured_quantity: Sugarbeets plant response rating
One number for each entry.

Solved entries:
CC(C)N(C(=O)n1oc(=O)n(-c2ccc(Cl)cc2Cl)c1=O)c1ccc(F)cc1 ... 0
CCN(Cc1ccccc1)C(=O)n1oc(=O)n(-c2c(C)cccc2C)c1=O ... 0

Please report Sugarbeets plant response rating for every entry that follows.
1. CC(C)N(C(=O)n1oc(=O)n(-c2cnn(C)c2Cl)c1=O)c1ccc(F)cc1
2. CC(C)N(C(=O)n1oc(=O)n(Cc2ccccc2)c1=O)c1ccc(F)cc1F
3. Cc1cccc(C(C)C)c1-n1c(=O)on(C(=O)N(c2ccc(F)cc2)C(C)C)c1=O

9
2
0
